Origin of the recorded values: the supplement of paper PMC4862054

test system: MDA-MB-453; assay: normalised response (% of control), CellTox Green; higher = less cell death (100 = DMSO, 0 = benzethonium chloride kill control); details: incubation time: 72 h
Form field: normalised response (one value per entry).
Output spec: scalar in %, unitless text.

Below are worked cases with known answers.
{"columns": ["MOLECULE", "normalised response, %"],
 "data": [
  ["O=C(c1cc(Cc2n[nH]c(=O)c3ccccc23)ccc1F)N1CCN(C(=O)C2CC2)CC1 [Olaparib] (10000 nM)", 109],
  ["Nc1nc(Cl)nc2c1ncn2[C@@H]1O[C@H](CO)[C@@H](O)[C@@H]1F [Clofarabine] (10000 nM)", 95.2],
  ["CC[C@@H]1C(=O)N(C)c2cnc(Nc3ccc(C(=O)N[C@H]4CC[C@H](N5CCN(CC6CC6)CC5)CC4)cc3OC)nc2N1C(C)C [Volasertib] (1000 nM)", 91.3],
  ["CC(C)(C)Cn1c(N)nc2ccc(-c3[nH]c(C(C)(C)C)nc3-c3ccc(F)cc3)nc21 (10000 nM)", 93.9],
  ["CC(C)C(=O)Nc1ccc([N+](=O)[O-])c(C(F)(F)F)c1 [Flutamide] (1000 nM)", 102]
]}

// sample CCN(CC)CCOc1ccc(C(=C(Cl)c2ccccc2)c2ccccc2)cc1 [Clomifene] (1000 nM) , its normalised response was 104

// sample CC/C(=C(\c1ccccc1)c1ccc(OCCN(C)C)cc1)c1ccccc1 [Tamoxifen] (10000 nM) , its normalised response was 35.6

// sample CO[C@H]1C[C@@H]2CC[C@@H](C)[C@@](O)(O2)C(=O)C(=O)N2CCCC[C@H]2C(=O)O[C@H]([C@H](C)C[C@@H]2CC[C@@H](O)[C@H](OC)C2)CC(=O)[C@H](C)/C=C(\C)[C@@H](O)[C@@H](OC)C(=O)[C@H](C)C[C@H](C)/C=C/C=C/C=C/1C [Sirolimus] (100 nM) , its normalised response was 106

---

system: CAL-51; test: normalised viability (% of control), CellTiter-Blue; higher = more viable cells (100 = DMSO, 0 = benzethonium chloride kill control); conditions: incubation time: 72 h
Form field: normalised viability (one value per entry).
Output spec: scalar in %, unitless text.

Below are worked cases with known answers.
{"columns": ["COMPOUND", "UNIT SPEC", "REPORTED VALUE"],
 "data": [
  ["Cc1cc2c(F)c(Oc3ncnn4cc(OC[C@@H](C)O)c(C)c34)ccc2[nH]1 [Brivanib] (0.1 nM)", "%", 93.4],
  ["C[C@@H]1C[C@H]2[C@@H]3CCC4=CC(=O)C=C[C@]4(C)[C@@]3(F)[C@@H](O)C[C@]2(C)[C@@]1(O)C(=O)CO [Dexamethasone] (1 nM)", "%", 95.6],
  ["O=C(c1cc(Cc2n[nH]c(=O)c3ccccc23)ccc1F)N1CCN(C(=O)C2CC2)CC1 [Olaparib] (1 nM)", "%", 103],
  ["CO[C@H]1C[C@@H]2CC[C@@H](C)[C@@](O)(O2)C(=O)C(=O)N2CCCC[C@H]2C(=O)O[C@H]([C@H](C)C[C@@H]2CC[C@@H](O)[C@H](OC)C2)CC(=O)[C@H](C)/C=C(\\C)[C@@H](O)[C@@H](OC)C(=O)[C@H](C)C[C@H](C)/C=C/C=C/C=C/1C [Sirolimus] (0.1 nM)", "%", 78.8],
  ["CN1CCN(c2nc(C3=C(c4c[nH]c5ccccc45)C(=O)NC3=O)c3ccccc3n2)CC1 [Sotrastaurin] (1 nM)", "%", 97]
]}

// moving on: another record for normalised viability
The reported CAL-51 normalised viability of NC(=O)NO [Hydroxyurea] (10 nM) is 100

---

test system: CAL-148; assay: normalised viability (% of control), CellTiter-Blue; higher = more viable cells (about 100 = DMSO control); conditions: 3 nM; incubation time: 72 h
Define the label as met when normalised viability is strictly less than 90% and as not met in all remaining cases.

Here's what some known entries look like.
{"columns": ["COMPOUND", "ANSWER LABEL"],
 "data": [
  ["Cc1c(C(=O)Nc2ccc(N3C[C@@H](C)O[C@@H](C)C3)nc2)cccc1-c1ccc(OC(F)(F)F)cc1 [NVP-LDE225]", "not met"],
  ["Cn1nnc2c(C(N)=O)ncn2c1=O [Temozolomide]", "not met"],
  ["NC(=O)c1cccc2cn(-c3ccc([C@@H]4CCCNC4)cc3)nc12 [MK-4827]", "not met"],
  ["C[C@@H](C(=O)O)c1ccc(-c2ccccc2)c(F)c1 [Tarenflurbil]", "met"],
  ["O=C(O)CC[C@H]1CC[C@@](c2cc(F)ccc2F)(S(=O)(=O)c2ccc(Cl)cc2)CC1 [MK-0752]", "not met"]
]}

Let's switch to this compound now.
stdin: Does this compound meet the criterion normalised viability < 90%? Nc1nc(Cl)nc2c1ncn2[C@@H]1O[C@H](CO)[C@@H](O)[C@@H]1F [Clofarabine]
stdout: met

---

system: MDA-MB-436; test: normalised viability (% of control), CellTiter-Blue; higher = more viable cells (about 100 = DMSO control); details: 1000 nM; incubation time: 72 h
Form field: normalised viability (one value per entry).

{"columns": ["MOLECULE", "normalised viability"],
 "data": [
  ["Cn1nnc2c(C(N)=O)ncn2c1=O [Temozolomide]", "91.3%"],
  ["NC1(c2ccc(-c3nc4ccn5c(=O)[nH]nc5c4cc3-c3ccccc3)cc2)CCC1 [MK-2206]", "81%"]
]}

The reported MDA-MB-436 normalised viability of Cc1c(N)nc([C@H](CC(N)=O)NC[C@H](N)C(N)=O)nc1C(=O)N[C@H](C(=O)N[C@H](C)[C@@H](O)[C@H](C)C(=O)N[C@H](C(=O)NCCc1nc(-c2nc(C(=O)NCCC[S+](C)C)cs2)cs1)[C@@H](C)O)[C@@H](OC1OC(CO)C(O)C(O)C1OC1OC(CO)C(O)C(OC(N)=O)C1O)c1cnc[nH]1 (stereo partly drawn) [Bleomycin] is 79%

---

tested on: Hs578T; experiment: normalised response (% of control), CellTiter-Glo; higher = more viable cells (100 = DMSO, 0 = benzethonium chloride kill control); conditions: incubation time: 72 h
MEASURED METRIC: normalised response (%)
Output spec: scalar in %, unitless text.

// sample CC(C)C[C@H](NC(=O)[C@H](CCc1ccccc1)NC(=O)CN1CCOCC1)C(=O)N[C@@H](Cc1ccccc1)C(=O)N[C@@H](CC(C)C)C(=O)[C@@]1(C)CO1 [Carfilzomib] (10 nM) , its normalised response was 63.5

---

system: HCC1143; assay: normalised response (% of control), CellTiter-Glo; higher = more viable cells (100 = DMSO, 0 = benzethonium chloride kill control); conditions: incubation time: 72 h
MEASURED METRIC: normalised response (%)
Output spec: scalar in %, unitless text.

Below are worked cases with known answers.
{"columns": ["COMPOUND", "normalised response / %"],
 "data": [
  ["CC(C)(C)Cn1c(N)nc2ccc(-c3[nH]c(C(C)(C)C)nc3-c3ccc(F)cc3)nc21 (100 nM)", 110],
  ["CC[C@H](CC#N)OC(=O)N[C@@H](C)c1cccc(NC(=O)Nc2ccc(-c3cnco3)c(OC)c2)c1 [AVN944] (100 nM)", 92.2],
  ["COc1cc2c(N3CCN(C(=O)Nc4ccc(OC(C)C)cc4)CC3)ncnc2cc1OCCCN1CCCCC1 [Tandutinib] (10 nM)", 98.1]
]}

// sample CC(C)NC[C@@H](C(=O)N1CCN(c2ncnc3c2[C@H](C)C[C@H]3O)CC1)c1ccc(Cl)cc1 [GDC-0068] (100 nM) , its normalised response was 100

---

tested on: HCC1143; test: normalised viability (% of control), CellTiter-Blue; higher = more viable cells (100 = DMSO, 0 = benzethonium chloride kill control); conditions: incubation time: 72 h
Form field: normalised viability (one value per entry).
Please report the result as a number followed by the unit.

Below are worked cases with known answers.
{"columns": ["COMPOUND", "TARGET OF ASSAY", "normalised viability"],
 "data": [
  ["C[C@@H]1C[C@H]2[C@@H]3CCC4=CC(=O)C=C[C@]4(C)[C@@]3(F)[C@@H](O)C[C@]2(C)[C@@]1(O)C(=O)CO [Dexamethasone] (1 nM)", "HCC1143", "91.8%"],
  ["CN1CCN(c2nc(C3=C(c4c[nH]c5ccccc45)C(=O)NC3=O)c3ccccc3n2)CC1 [Sotrastaurin] (1 nM)", "HCC1143", "131%"],
  ["COc1cc2c(N3CCN(C(=O)Nc4ccc(OC(C)C)cc4)CC3)ncnc2cc1OCCCN1CCCCC1 [Tandutinib] (0.1 nM)", "HCC1143", "103%"],
  ["NC1(c2ccc(-c3nc4ccn5c(=O)[nH]nc5c4cc3-c3ccccc3)cc2)CCC1 [MK-2206] (0.1 nM)", "HCC1143", "118%"],
  ["COc1cc2c(Oc3ccc(NC(=O)C4(C(=O)Nc5ccc(F)cc5)CC4)cc3F)ccnc2cc1OCCCN1CCOCC1 [Foretinib] (0.1 nM)", "HCC1143", "100%"]
]}

The reported HCC1143 normalised viability of Cn1nnc2c(C(N)=O)ncn2c1=O [Temozolomide] (1 nM) is 118%
